These measurements were taken from patent US20260116987A1.

Reported Octet (nm shift) values are given for each entry in this list.
Target or test system: CCR8-NT.MBP (CCR8 N-terminus peptide aa 1-35 fused with maltose binding protein)
Assay procedure: ForteBio Octet, antibody at 10 µg/ml captured on AHC biosensors, 300 nM CCR8-NT.MBP as analyte
Quantity measured: Octet (nm shift)

Binder | Experimental result
7B16.013 (CDR H3 alanine scan variant of 7-B16) (antibody, human IgG1, kappa, V domains shown) VH: EVQLVESGGGLVQPKGSLKLSCAASGFTFNTYAMNWVRQAPGKGLEWVARIRSKSNNYATYYADSVKDRFTISRDDSQSMLYLQMNNLKTEDTAMYYCVRGLLRYRFFDAWGAGTTVTVSS VL: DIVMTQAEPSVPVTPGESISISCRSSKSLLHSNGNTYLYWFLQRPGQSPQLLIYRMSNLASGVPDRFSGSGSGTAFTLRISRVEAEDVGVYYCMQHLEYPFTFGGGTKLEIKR | 0.383 nm
7B16.004 (CDR H3 alanine scan variant of 7-B16) (antibody, human IgG1, kappa, V domains shown) VH: EVQLVESGGGLVQPKGSLKLSCAASGFTFNTYAMNWVRQAPGKGLEWVARIRSKSNNYATYYADSVKDRFTISRDDSQSMLYLQMNNLKTEDTAMYYCVRALLRYRFFDVWGAGTTVTVSS VL: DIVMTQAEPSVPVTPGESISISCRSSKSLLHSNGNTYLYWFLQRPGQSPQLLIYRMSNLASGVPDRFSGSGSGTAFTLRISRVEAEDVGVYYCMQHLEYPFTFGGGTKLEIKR | 0.221 nm
7B16.002 (CDR H3 alanine scan variant of 7-B16) (antibody, human IgG1, kappa, V domains shown) VH: EVQLVESGGGLVQPKGSLKLSCAASGFTFNTYAMNWVRQAPGKGLEWVARIRSKSNNYATYYADSVKDRFTISRDDSQSMLYLQMNNLKTEDTAMYYCARGLLRYRFFDVWGAGTTVTVSS VL: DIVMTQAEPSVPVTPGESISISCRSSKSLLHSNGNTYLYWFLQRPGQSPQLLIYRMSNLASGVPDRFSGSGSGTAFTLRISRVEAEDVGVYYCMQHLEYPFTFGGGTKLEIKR | 0.469 nm
